Assay Summary: Stability in RPMI-1640 medium containing 10% heat inactivated fetal calf serum at pH 7.6 assessed as hydrolysis half life
Type: physicochemical
Run Conditions: cattle, RPMI-1640 medium with 10% heat-inactivated fetal calf serum
Readings of half-life for the listed compounds
Numbers only here, please. The scale is h.

Examples with answers:
[
  {
    "Compound": "Cc1cn([C@H]2C=C[C@@H](CO[P@@]3(=O)OCc4cc(C=O)cc(C(C)(C)C)c4O3)O2)c(=O)[nH]c1=O",
    "Measured": 1.6
  },
  {
    "Compound": "CC(=O)OC(OC(C)=O)c1cc2c(c(C(C)(C)C)c1)O[P@](=O)(OC[C@@H]1C=C[C@H](n3cc(C)c(=O)[nH]c3=O)O1)OC2",
    "Measured": 2.9
  },
  {
    "Compound": "Cc1cn([C@H]2C=C[C@@H](CO[P@]3(=O)OCc4cc(C=O)cc(C(C)(C)C)c4O3)O2)c(=O)[nH]c1=O",
    "Measured": 1.7
  },
  {
    "Compound": "CC(=O)OC(OC(C)=O)c1cc(C(C)(C)C)cc2c1OP(=O)(OC[C@@H]1C=C[C@H](n3cc(C)c(=O)[nH]c3=O)O1)OC2 (some centres undefined)",
    "Measured": 1.9
  },
  {
    "Compound": "Cc1cn([C@H]2C=C[C@@H](CO[P@@]3(=O)OCc4cc(C(OC(=O)C(C)C)OC(=O)C(C)C)cc(C(C)(C)C)c4O3)O2)c(=O)[nH]c1=O",
    "Measured": 4.5
  },
  {
    "Compound": "CC(=O)OC(OC(C)=O)c1cc(C)c2c(c1)COP(=O)(OC[C@@H]1C=C[C@H](n3cc(C)c(=O)[nH]c3=O)O1)O2 (some centres undefined)",
    "Measured": 1.5
  }
]

## Task Using the record for Cc1cc(C=O)c2c(c1)COP(=O)(OC[C@@H]1C=C[C@H](n3cc(C)c(=O)[nH]c3=O)O1)O2 (some centres undefined) , report its half-life.
## Result 0.3

## Task Using the record for CC(=O)OC(OC(C)=O)c1cc(C)cc2c1OP(=O)(OC[C@@H]1C=C[C@H](n3cc(C)c(=O)[nH]c3=O)O1)OC2 (some centres undefined) , report its half-life.
## Result 1.5

## Task Using the record for Cc1cn([C@H]2C=C[C@@H](COP3(=O)OCc4cc(C(C)(C)C)cc(C=O)c4O3)O2)c(=O)[nH]c1=O (some centres undefined) , report its half-life.
## Result 0.3

* * *

Readings of half-life for the listed compounds
Assay Summary: Stability in aqueous 25 mM phosphate buffer at pH 7.3 assessed as hydrolysis half life
Type: physicochemical
Numbers only here, please. The scale is h.

Examples with answers:
[
  {
    "Compound": "CC(=O)OC(OC(C)=O)c1cc(C(C)(C)C)cc2c1OP(=O)(OC[C@@H]1C=C[C@H](n3cc(C)c(=O)[nH]c3=O)O1)OC2 (stereo partly drawn)",
    "half-life / h": 3.7
  },
  {
    "Compound": "Cc1cn([C@H]2C=C[C@@H](COP3(=O)OCc4cc(C(C)(C)C)ccc4O3)O2)c(=O)[nH]c1=O (stereo partly drawn)",
    "half-life / h": 7.2
  },
  {
    "Compound": "Cc1cn([C@H]2C=C[C@@H](COP3(=O)OCc4cc(C=O)cc(C(C)(C)C)c4O3)O2)c(=O)[nH]c1=O (stereo partly drawn)",
    "half-life / h": 1
  },
  {
    "Compound": "CC(=O)OC(OC(C)=O)c1cc(C)cc2c1OP(=O)(OC[C@@H]1C=C[C@H](n3cc(C)c(=O)[nH]c3=O)O1)OC2 (stereo partly drawn)",
    "half-life / h": 3.2
  },
  {
    "Compound": "CC(=O)OC(OC(C)=O)c1cc2c(c(C(C)(C)C)c1)O[P@@](=O)(OC[C@@H]1C=C[C@H](n3cc(C)c(=O)[nH]c3=O)O1)OC2",
    "half-life / h": 8.3
  }
]

## Task Using the record for Cc1cn([C@H]2C=C[C@@H](COP3(=O)OCc4cc(C(OC(=O)C(C)C)OC(=O)C(C)C)cc(C(C)(C)C)c4O3)O2)c(=O)[nH]c1=O (stereo partly drawn) , report its half-life.
## Result 3.5

## Task Using the record for Cc1cn([C@H]2C=C[C@@H](CO[P@]3(=O)OCc4cc(C=O)cc(C(C)(C)C)c4O3)O2)c(=O)[nH]c1=O , report its half-life.
## Result 1.3

## Task Using the record for Cc1cn([C@H]2C=C[C@@H](CO[P@]3(=O)OCc4cc(C(OC(=O)C(C)C)OC(=O)C(C)C)cc(C(C)(C)C)c4O3)O2)c(=O)[nH]c1=O , report its half-life.
## Result 3.3

* * *

Assay Summary: Stability in aqueous 25 mM phosphate buffer at pH 7.6 assessed as hydrolysis half life
Format: physicochemical
Label Not met if half-life falls below 1 h; label Met in every other case.

Solved cases (6 shown):
[
  {
    "Compound": "Cc1cn([C@H]2C=C[C@@H](CO[P@]3(=O)OCc4cc(C(OC(=O)C(C)C)OC(=O)C(C)C)cc(C(C)(C)C)c4O3)O2)c(=O)[nH]c1=O",
    "Category Label": "Met"
  },
  {
    "Compound": "Cc1cn([C@H]2C=C[C@@H](CO[P@@]3(=O)OCc4cc(C=O)cc(C(C)(C)C)c4O3)O2)c(=O)[nH]c1=O",
    "Category Label": "Not met"
  },
  {
    "Compound": "Cc1cn([C@H]2C=C[C@@H](CO[P@]3(=O)OCc4cc(C=O)cc(C(C)(C)C)c4O3)O2)c(=O)[nH]c1=O",
    "Category Label": "Met"
  },
  {
    "Compound": "Cc1cc(C(OC(=O)C(C)C)OC(=O)C(C)C)cc2c1OP(=O)(OC[C@@H]1C=C[C@H](n3cc(C)c(=O)[nH]c3=O)O1)OC2 (some centres not stated)",
    "Category Label": "Met"
  },
  {
    "Compound": "Cc1cc(C=O)cc2c1OP(=O)(OC[C@@H]1C=C[C@H](n3cc(C)c(=O)[nH]c3=O)O1)OC2 (some centres not stated)",
    "Category Label": "Not met"
  },
  {
    "Compound": "CC(=O)OC(OC(C)=O)c1cc2c(c(C(C)(C)C)c1)O[P@@](=O)(OC[C@@H]1C=C[C@H](n3cc(C)c(=O)[nH]c3=O)O1)OC2",
    "Category Label": "Met"
  }
]

// next entry
## Task Exam item: decide whether the reported half-life for CC(=O)OC(OC(C)=O)c1cc2c(c(C(C)(C)C)c1)O[P@](=O)(OC[C@@H]1C=C[C@H](n3cc(C)c(=O)[nH]c3=O)O1)OC2 is at least 1 h.
## Result Met

* * *

Readings of half-life for the listed compounds
Assay Summary: Stability in aqueous 25 mM phosphate buffer at pH 7.3 assessed as hydrolysis half life
Assay type: physicochemical
Numbers only here, please. The scale is min.

## Task Using the record for Cc1cn([C@H]2C=C[C@@H](COP3(=O)OCc4cc(C(C)(C)C)cc(C=O)c4O3)O2)c(=O)[nH]c1=O (some centres not stated) , report its half-life.
## Result 15

## Task Using the record for Cc1cc(C(OC(=O)C(C)C)OC(=O)C(C)C)cc2c1OP(=O)(OC[C@@H]1C=C[C@H](n3cc(C)c(=O)[nH]c3=O)O1)OC2 (some centres not stated) , report its half-life.
## Result 78

## Task Using the record for Cc1cc(C=O)c2c(c1)COP(=O)(OC[C@@H]1C=C[C@H](n3cc(C)c(=O)[nH]c3=O)O1)O2 (some centres not stated) , report its half-life.
## Result 15

## Task Using the record for CC(=O)OC(OC(C)=O)c1cc2c(c(C(C)(C)C)c1)O[P@](=O)(OC[C@@H]1C=C[C@H](n3cc(C)c(=O)[nH]c3=O)O1)OC2 , report its half-life.
## Result 474

## Task Using the record for CC(=O)OC(OC(C)=O)c1cc2c(c(C(C)(C)C)c1)OP(=O)(OC[C@@H]1C=C[C@H](n3cc(C)c(=O)[nH]c3=O)O1)OC2 (some centres not stated) , report its half-life.
## Result 474

## Task Using the record for Cc1cn([C@H]2C=C[C@@H](CO[P@@]3(=O)OCc4cc(C=O)cc(C(C)(C)C)c4O3)O2)c(=O)[nH]c1=O , report its half-life.
## Result 60

## Task Using the record for Cc1cn([C@H]2C=C[C@@H](CO[P@@]3(=O)OCc4cc(C(OC(=O)C(C)C)OC(=O)C(C)C)cc(C(C)(C)C)c4O3)O2)c(=O)[nH]c1=O , report its half-life.
## Result 228
